B1: 2M8U (parent)
chain: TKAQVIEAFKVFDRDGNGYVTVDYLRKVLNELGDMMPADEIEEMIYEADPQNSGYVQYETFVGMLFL

Variants of: B1
Experiment: folding stability dG (cDNA display proteolysis); higher = more stable
Conditions: PBS, room temperature
Give measured folding stability dG for each item. Keep answers brief.
Give bare numbers, in kcal/mol.

1. R14T :: 3.81
2. M36P :: 3.63
3. V56P :: 1.86

Quick request: folding stability dG for each listed item, please.
1. E40P
2. K10A
3. Q51K
4. M44L
5. Y46P
6. L65T
7. Y55R
8. M36H

1. 3.22
2. 3.13
3. 3.45
4. 3.65
5. 2.82
6. 1.96
7. 3.37
8. 3.99

Quick request: folding stability dG for each listed item, please.
1. Y55H
2. Y55S
3. P50K
4. E31K
5. V56M

3.22
3.25
3.39
3.49
2.55

Data provenance: the MegaScale stability set (Tsuboyama et al. 2023)
